Data provenance: patent US20030087774A1

# METHOD_NOTES: CO2 wash test of model fragrance A on cotton fabric (supercritical fluid extractor, GC FID)
# Format: physicochemical
# STUDY_CONDITIONS: supercritical CO2 43° C., 77 bar, density 0.25 g/ml; cotton fabric
Attribute: % Left on Fabric
METRIC_NAME: % Left on Fabric (%)

[
  {
    "MOLECULE": "CC(=O)OCc1ccccc1 [Benzyl Acetate]",
    "UNIT": "%",
    "ASSAY_RESULT": 80
  },
  {
    "MOLECULE": "CC(C)=CCC/C(C)=C/CO",
    "UNIT": "%",
    "ASSAY_RESULT": 77
  },
  {
    "MOLECULE": "CC(=O)OC1CCC(C(C)(C)C)CC1 (centres unmarked)",
    "UNIT": "%",
    "ASSAY_RESULT": 69
  },
  {
    "MOLECULE": "CCOC(=O)c1ccccc1C(=O)OCC [Diethyl Phthalate]",
    "UNIT": "%",
    "ASSAY_RESULT": 81
  },
  {
    "MOLECULE": "CC(CC=O)CCCC(C)(C)O (centres unmarked) [Hydroxy Citronellal P]",
    "UNIT": "%",
    "ASSAY_RESULT": 85
  },
  {
    "MOLECULE": "C=CC(C)CCCC(C)(C)O (centres unmarked) [Dihydro Myrcenol]",
    "UNIT": "%",
    "ASSAY_RESULT": 74
  },
  {
    "MOLECULE": "CC(=O)OCCc1ccccc1 [Phenyl Ethyl Acetate]",
    "UNIT": "%",
    "ASSAY_RESULT": 70
  },
  {
    "MOLECULE": "CC(C)=CCCC(C)CCO (centres unmarked)",
    "UNIT": "%",
    "ASSAY_RESULT": 76
  },
  {
    "MOLECULE": "C[C@@H]1CC[C@H]2C(C)(C)[C@H]3C[C@@]12CC[C@@]3(C)O",
    "UNIT": "%",
    "ASSAY_RESULT": 84
  },
  {
    "MOLECULE": "CC(=O)OC(C)(C)Cc1ccccc1 [Dimethyl Benzyl Carbinyl Acetate]",
    "UNIT": "%",
    "ASSAY_RESULT": 69
  },
  {
    "MOLECULE": "CC(=O)OCC=C(C)C [Prenyl acetate]",
    "UNIT": "%",
    "ASSAY_RESULT": 97
  }
]

---

# METHOD_NOTES: CO2 wash test of model fragrance A on cotton fabric (supercritical fluid extractor, GC FID)
# Format: physicochemical
# STUDY_CONDITIONS: fraction, from the wash test of Table 2
Doc: threshold 0.9 (exclusive). Items with fraction left on fabric beneath it return satisfied; others return not satisfied.

[
  {
    "COMPOUND": "C=C1CCC2CC1C2(C)C (stereo not drawn)",
    "CLASS": "not satisfied"
  },
  {
    "COMPOUND": "CCCCCCC(C=O)=Cc1ccccc1",
    "CLASS": "satisfied"
  },
  {
    "COMPOUND": "CC(=O)OC(C)(C)Cc1ccccc1 [Dimethyl Benzyl Carbinyl Acetate]",
    "CLASS": "satisfied"
  },
  {
    "COMPOUND": "CC(C)CCOC(=O)c1ccccc1O [Iso Amyl Salicylate]",
    "CLASS": "satisfied"
  },
  {
    "COMPOUND": "O=c1ccc2ccccc2o1",
    "CLASS": "not satisfied"
  },
  {
    "COMPOUND": "C=CCc1ccc(O)c(OC)c1",
    "CLASS": "satisfied"
  }
]
